# targetSystem: T1, hCMV gH + gL + UL128 + UL130 + UL131A (5-member complex; HEK293T co-transfectant) (hCMV, UniProt P12824 24-743; P16832 31-278; P16837 1-171; P16772 1-214)
# T1 construct: whole, on cells; in the functional rows it stands for the complex on virions or transduced cells of the strain or isolate named in the readout; also called gH/gL/UL128-131A complex; pentameric complex
# assaySummary: cell competition; competitor 4N10-biotin
measurementType: Inhibition of binding (%)

[[record]]
binder = "4I22 (antibody, human IgG1, V domains shown, fully human IgG1 with unaltered Fc; also called 4I22-biotin; 4122) VH: QVQLVESGGGVVQPGRSLRLSCVASGFTFSSYAMHWVRQAPGKGLEWVAVISYDGDNKFYADSVKGRFRISRDTSKNTLYLEMNSLRAADTAIYYCAREELVGLMPPYYNYGLDVWGQGTTVTVSS VL: QSVLTQPPSVSAAPGQKVTISCSGSNSNIGNNYVSWYQQLPGRAPKLLIYDNDHRPSGIPDRFSGSKSGTSATLVITGLQTGDEADYYCETWDTSLSAAVVFGGGTKLTVL"
datavalue = 0

[[record]]
binder = "2C12 (antibody, V domains shown, human IgG; also called 2C12-biotin) VH: QITLRESGPTLVKPTQTLTLTCTFSGFSLNTNGVGVGWIRQPPGKALEWLALIYWNGNEGYSPSLKSRLTITKDTSKNQVVLTMTNMDPVDTATYYCVHWPQGLTTVTRLAFDIWGQGTMVTVSS VL: QSALTQPRSVSGSPGQSVTISCTGTTSDVGRYNFVSWYQQHPGKAPKLLMYDVSQRPSGVPSRFSGSKSGNTASLTISGLQAEDEAVFYCCSYAGGNFFSYVFGTGTKVTVL"
datavalue = 0

[[record]]
binder = "4N10 (antibody, V domains shown, human IgG; also called 4N10-biotin) VH: QVQLVQSGAEVKKPGSSVRVSCKASGGTFSSYVIIWVRQAPGQGLEWMGGVIPIFDTVNYAQKFQGRVTITADESTSTAYMELSSLKSEDTAVYYCARGILAYCGGDCYNTPYGMDVWGQGTTVTVSS VL: DIQMTQSPSILSASVGDRVTITCRASQSISSWLAWYQQKPGKAPKLLIYKASSLEIGVPSRISGSGSGTEFTLTISSLQPDDFATYYCQQYNSSWTFGQGTKVEIK"
datavalue = 100

[[record]]
binder = "15D8 (antibody, V domains shown, human IgG; also called 15D8-biotin) VH: EVQLVQSGAEVKKPGESLKISCQASGYSFTNYWIAWVRQMPGKGLEWMGIIYPGDSDIKYSPSFRGQVTISADKSISNAFLQWRSLRASDTAMYYCARHAIRGDGFDYWGQGTLVTVSS VL: SYELTQPPSVSVSPGQTATITCSGDKLGEKYACWYQQKPGQSPVLVMYQDTKRPSGIPERFSGSNSGNTATLTISGTRAMDEADYYCQAWDTNTVIFGGGTKLTVL"
datavalue = 0

